These measurements were taken from patent US20170022281A1.

- systemTested: T1, human PRLR (Biacore antigen) (human, UniProt P16471 25-234, limits assumed)
- T1 construct: The construct injected over captured antibody is not described (a soluble form is likely); also called huPRLR
- T1 sequence: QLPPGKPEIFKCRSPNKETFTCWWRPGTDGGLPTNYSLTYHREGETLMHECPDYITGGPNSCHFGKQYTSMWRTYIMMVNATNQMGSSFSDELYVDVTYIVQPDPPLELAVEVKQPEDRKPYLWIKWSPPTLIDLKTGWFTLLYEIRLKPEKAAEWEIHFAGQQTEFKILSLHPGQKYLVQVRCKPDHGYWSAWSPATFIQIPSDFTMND
- experimentalDetails: SPR simultaneous binding; PRLR held by surface mAb chAb6
- Procedure: Running buffer was HBS-EP+ (10 mM Hepes, pH7.4, 150 mM NaCl, 3 mM EDTA, 0.05% surfactant). Assay was performed at 12° C. using Biacore T200 and CM5 sensor chips with anti-human IgG (Pierce) amine-coupled in all 4 flow cells to ˜2000 RU. Separate test mAbs were captured in flowcells 2, 3 & 4 (flowcell 1 was reference, no test mAb). All 4 flowcells were then blocked by injection with isotype control mAb at 50 ug/ml. […]
Entries annotated with measured solution mAb binding, % of PRLR binding
reportedProperty: solution mAb binding, % of PRLR binding (%)

binder | reportedProperty | quantitativeReadout
Ab19 (antibody, human IgG1, kappa, V domains shown, humanized from Ab6; G1; also called Ab1 HC.1a and Ab1 LC.1a) VH: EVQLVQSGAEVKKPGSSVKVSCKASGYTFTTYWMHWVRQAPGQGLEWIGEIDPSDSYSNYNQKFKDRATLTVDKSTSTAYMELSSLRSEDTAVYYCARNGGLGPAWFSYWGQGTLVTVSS VL: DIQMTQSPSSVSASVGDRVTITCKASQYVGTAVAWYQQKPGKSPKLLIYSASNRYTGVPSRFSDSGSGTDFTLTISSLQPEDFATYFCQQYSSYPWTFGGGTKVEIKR | solution mAb binding, % of PRLR binding | 0
Ab21 (antibody, human IgG1, kappa, V domains shown, humanized from Ab6; G1; also called Ab1 HC.1a and Ab1 LC.2a) VH: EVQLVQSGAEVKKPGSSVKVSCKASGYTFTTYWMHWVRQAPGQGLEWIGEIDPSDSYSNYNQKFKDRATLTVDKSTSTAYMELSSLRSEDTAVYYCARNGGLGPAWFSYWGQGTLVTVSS VL: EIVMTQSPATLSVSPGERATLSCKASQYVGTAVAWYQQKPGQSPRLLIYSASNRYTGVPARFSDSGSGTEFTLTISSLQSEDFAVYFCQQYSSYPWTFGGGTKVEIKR | solution mAb binding, % of PRLR binding | -1
chAb8 (antibody, human IgG1, kappa, V domains shown, chimeric, murine variable and human G1/kappa constant regions) VH: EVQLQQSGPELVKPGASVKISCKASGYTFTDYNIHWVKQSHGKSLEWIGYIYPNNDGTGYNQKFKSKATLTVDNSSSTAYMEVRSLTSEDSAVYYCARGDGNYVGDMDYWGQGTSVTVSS VL: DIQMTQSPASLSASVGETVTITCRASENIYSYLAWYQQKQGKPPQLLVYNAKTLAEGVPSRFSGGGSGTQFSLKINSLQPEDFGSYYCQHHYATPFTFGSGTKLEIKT | solution mAb binding, % of PRLR binding | -1
Ab48 (antibody, human IgG1, kappa, V domains shown, humanized from Ab8; G1; also called Ab3 HC.1a and Ab3 LC.1a) VH: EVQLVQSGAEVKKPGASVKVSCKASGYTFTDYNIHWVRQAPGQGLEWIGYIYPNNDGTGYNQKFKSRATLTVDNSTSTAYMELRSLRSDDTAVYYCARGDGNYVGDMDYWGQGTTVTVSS VL: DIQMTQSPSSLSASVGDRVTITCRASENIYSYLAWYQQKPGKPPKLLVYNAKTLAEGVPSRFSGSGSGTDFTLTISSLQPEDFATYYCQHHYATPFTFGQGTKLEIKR | solution mAb binding, % of PRLR binding | -2
Ab39 (antibody, human IgG1, kappa, V domains shown, humanized from Ab7; G1; also called Ab4 HC.1a and Ab4 LC.1a) VH: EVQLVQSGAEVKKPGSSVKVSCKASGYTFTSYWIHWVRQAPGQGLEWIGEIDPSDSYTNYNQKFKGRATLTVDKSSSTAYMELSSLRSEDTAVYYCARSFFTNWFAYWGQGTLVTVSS VL: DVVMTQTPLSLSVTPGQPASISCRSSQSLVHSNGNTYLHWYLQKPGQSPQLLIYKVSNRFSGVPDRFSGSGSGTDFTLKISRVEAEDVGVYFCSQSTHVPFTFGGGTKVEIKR | solution mAb binding, % of PRLR binding | 0
Ab49 (antibody, human IgG1, kappa, V domains shown, humanized from Ab8; G1; also called Ab3 HC.1a and Ab3 LC.1b) VH: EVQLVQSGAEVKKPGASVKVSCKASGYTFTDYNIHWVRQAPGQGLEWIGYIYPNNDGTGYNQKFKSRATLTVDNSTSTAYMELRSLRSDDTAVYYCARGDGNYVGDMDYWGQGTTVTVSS VL: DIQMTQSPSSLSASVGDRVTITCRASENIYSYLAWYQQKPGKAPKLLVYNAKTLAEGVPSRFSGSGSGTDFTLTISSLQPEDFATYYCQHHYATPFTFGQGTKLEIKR | solution mAb binding, % of PRLR binding | -2
chAb7 (antibody, human IgG1, kappa, V domains shown, chimeric, murine variable and human G1/kappa constant regions) VH: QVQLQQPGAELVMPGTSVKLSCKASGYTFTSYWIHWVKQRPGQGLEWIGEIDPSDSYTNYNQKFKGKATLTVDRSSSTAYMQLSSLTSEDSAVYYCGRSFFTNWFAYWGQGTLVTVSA VL: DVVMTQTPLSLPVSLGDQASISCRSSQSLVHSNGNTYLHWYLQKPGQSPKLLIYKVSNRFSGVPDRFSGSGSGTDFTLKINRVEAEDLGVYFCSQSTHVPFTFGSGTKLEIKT | solution mAb binding, % of PRLR binding | -1
chAb6 (antibody, human IgG1, kappa, V domains shown, chimeric, murine variable and human G1/kappa constant regions) VH: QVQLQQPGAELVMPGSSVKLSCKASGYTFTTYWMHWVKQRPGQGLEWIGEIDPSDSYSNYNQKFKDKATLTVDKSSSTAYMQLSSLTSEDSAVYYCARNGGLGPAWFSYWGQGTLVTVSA VL: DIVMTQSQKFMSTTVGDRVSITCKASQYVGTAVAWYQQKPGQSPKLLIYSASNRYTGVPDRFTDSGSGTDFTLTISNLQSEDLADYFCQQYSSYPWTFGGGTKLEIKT | solution mAb binding, % of PRLR binding | -1
chAb5 (antibody, human IgG1, kappa, V domains shown, chimeric, murine variable and human G1/kappa constant regions) VH: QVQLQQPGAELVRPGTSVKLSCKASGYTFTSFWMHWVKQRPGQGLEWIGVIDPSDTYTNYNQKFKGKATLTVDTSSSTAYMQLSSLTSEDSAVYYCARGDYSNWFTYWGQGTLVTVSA VL: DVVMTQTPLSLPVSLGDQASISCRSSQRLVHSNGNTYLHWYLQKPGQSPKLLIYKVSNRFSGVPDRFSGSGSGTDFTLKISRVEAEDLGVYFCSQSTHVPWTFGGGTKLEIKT | solution mAb binding, % of PRLR binding | -1
LFA102 (antibody, human IgG1, kappa, V domains shown, humanized IgG1 kappa comparator (WO 2008022295)) VH: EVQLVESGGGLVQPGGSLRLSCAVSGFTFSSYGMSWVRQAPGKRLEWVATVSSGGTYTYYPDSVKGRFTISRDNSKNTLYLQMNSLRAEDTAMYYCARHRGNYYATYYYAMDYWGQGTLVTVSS VL: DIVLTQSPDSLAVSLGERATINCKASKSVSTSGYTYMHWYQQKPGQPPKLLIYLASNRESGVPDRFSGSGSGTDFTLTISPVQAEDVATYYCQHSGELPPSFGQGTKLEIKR | solution mAb binding, % of PRLR binding | 26
Ab30 (antibody, human IgG1, kappa, V domains shown, humanized from Ab5; G1; also called Ab2 HC.1a and Ab2 LC.1a) VH: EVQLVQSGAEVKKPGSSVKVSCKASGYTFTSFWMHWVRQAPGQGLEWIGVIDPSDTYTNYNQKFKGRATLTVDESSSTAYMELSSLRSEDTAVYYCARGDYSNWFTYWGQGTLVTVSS VL: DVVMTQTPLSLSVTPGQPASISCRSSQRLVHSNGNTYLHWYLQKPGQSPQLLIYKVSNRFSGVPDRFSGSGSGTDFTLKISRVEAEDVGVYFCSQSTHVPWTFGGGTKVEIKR | solution mAb binding, % of PRLR binding | -1
